- Test system: U251 CNS
- assay procedure: NCI-60 one-dose screen, 48 h (100 = growth as untreated, 0 = no growth, -100 = all killed)
- measurement context: 10 µM unless noted
- Experimental: Growth inhibition of the U251 human tumor cell line is measured as a screen for anti-cancer activity. Cells are grown in 96 well plates and exposed to the test compound for 48 hours. Compounds are tested at a single concentration, which is 10^-5 M for most compounds. The reported endpoint is percent growth (GI% or GIPRCNT), where numbers from 0 - 100% represent growth inhibition, and numbers from -100% - 0 represent cell death. For example, a value of 40 represents 60% growth inhibition. […]
About 83,000 compounds went through this panel and 20% of them were active in at least one assay; those are over-represented in the sample as a whole.
Below, each entry is listed alongside its reported growth.

| compound | target system | growth (%) |
| --- | --- | --- |
| Cc1nc2cccc(NCc3ccc(C(=O)NO)cc3)c2c(=O)n1-c1ccccc1 | U251 CNS | -16.7 |
| Cc1cc2c(c(C)n1)CN(C(=O)Nc1nc(-c3cncs3)ccc1N)C2 | U251 CNS | 86.9 |
| COC(=O)CCc1c(/C=C2\N=C(c3ccc[nH]3)C=C2OC)[nH]c(C)c1C(=O)OCc1ccccc1 | U251 CNS | 3.55 |
| COC(=O)c1nc(-c2ccccc2)oc1S(=O)(=O)N1CCN(c2ccc(OC)cc2)CC1 | U251 CNS | 90.8 |
| O=c1cc(-c2nccc3c2[nH]c2ccccc23)c2cc(Cl)ccc2o1 | U251 CNS | 29.6 |
| O=C(/C=C/c1cccc([N+](=O)[O-])c1)c1ccc(Nc2nc(Nc3ccc(F)cc3)nc(Nc3ccc(Cl)cc3)n2)cc1 | U251 CNS | 81.1 |
| O=C(/C=C/c1ccc(Cl)cc1)c1ccc(-n2cc(CN3CCN(c4cc5c(cc4F)c(=O)c(C(=O)O)cn5C4CC4)CC3)nn2)cc1 | U251 CNS | 68.6 |
| Nc1ccc(Cl)c2c(=O)c3ccccc3[nH]c12 | U251 CNS | 92.2 |
| COc1ccc(-n2c(=O)n(-c3ccc(-c4nc5ccc(F)cc5s4)cc3)c(=O)c3cccnc32)cc1 | U251 CNS | 96.9 |
| O=c1oc2ccccc2cc1-c1nn(-c2ccccc2)cc1/C=N/Nc1nc(-c2ccccc2)c(N=Nc2ccccc2)s1 | U251 CNS | 47.6 |
| COc1ccc(NC(=O)CSc2oc(-c3ccccc3)nc2S(=O)(=O)c2ccc(Cl)cc2)c(OC)c1 | U251 CNS | 50.6 |
| COc1ccc(-c2ccc(-c3ccc(C(=N)N)nc3)s2)cc1 | U251 CNS | -51.9 |
| COc1cc(OCc2cccc(-c3ccccc3)c2C)cc(OC)c1CN1CCCCC1C(=O)NCCOCCOCCN (stereo not drawn) | U251 CNS | 25.7 |
| CCN(CC)CCCC(Nc1c2ccc(Cl)cc2nc2ccc(OC)cc12)c1ccncc1 (stereo not drawn) | U251 CNS | 79.3 |
| Cc1c2cnccc2c(C)c2c1c1cc(C(=O)O)ccc1n2C | U251 CNS | 0.0209 |
| COc1cc(-c2ccc(-c3ccc(C(=N)N)s3)s2)cc(OC)c1OC | U251 CNS | 1.13 |
| c1ccc2cc(Cn3cc[n+](Cc4ccc5ccccc5c4)c3)ccc2c1 | U251 CNS | 21.8 |
| CCCc1cc(CCC)n2nc(N)nc2n1 | U251 CNS | 110 |
| C=CN(C(=O)N1CCN(c2cc3c(cc2F)c(=O)c(C(=O)O)cn3C2CC2)CC1)c1nc(-c2ccc(C)cc2)cs1 | U251 CNS | 11.4 |
| C#CCOc1ccc(C2=NN(C)C3N=C(Cl)c4ncn(C)c4N23)cc1OCC#C (stereo not drawn) | U251 CNS | 98.7 |
| C=C1C(=O)O[C@H]2[C@H]1CC/C(COC(=O)NCc1ccc(Cn3c(=O)sn(CCCC)c3=O)cc1)=C\CC[C@@]1(C)O[C@@H]21 | U251 CNS | 60.4 |
| CN1C(=O)N(C)C2C1NN=c1s/c(=C\c3ccc(F)cc3)c(=O)n12 (stereo not drawn) | U251 CNS | 26.8 |
| CC(=O)O[C@H]1C[C@@]2(C)[C@@H](C[C@@H](O)[C@H]3[C@@]4(C)CC[C@H](N5CCCC5)[C@@H](C)[C@@H]4CC[C@@]32C)/C1=C(\CCC=C(C)C)C(=O)O | U251 CNS | 99.5 |
| CN(C)C(=O)OCc1ccc2c(Cl)cc(Cl)c(O)c2n1 | U251 CNS | 18.5 |
| COc1ccc(C(=O)/C=C/c2ccc(C)cc2)cc1S(N)(=O)=O | U251 CNS | 17.1 |
| Cc1c(-c2cnc3ccc(Cl)cc3c2C(=O)O)nnn1-c1ccc(Cl)cc1 | U251 CNS | 97.3 |
| COC(=O)c1c(C(=O)OC)c2ccc3c4ncccc4ccc3n2c1C(=O)c1ccc(C)cc1 | U251 CNS | 98.9 |
| O=C(O)c1nn(-c2ccc(Cl)cc2)nc1N1CCCC1 | U251 CNS | 92.3 |
| O=c1c(Cc2ccc(F)cc2)cc(-c2ccccc2)nn1C/C(=N/O)c1ccccc1 | U251 CNS | 34.5 |
| O=C(Nc1cccc(Cn2c(=O)[nH]c3ccc(Oc4ncccn4)cc3c2=O)c1)c1cccc(Cl)c1 | U251 CNS | 61.9 |
| COc1ccc(Nc2nccc(Nc3ccc4[nH]ncc4c3)n2)cc1 | U251 CNS | 35.5 |
| O=C1CC2C=CCN2C=C1NC(=O)c1ccccc1 (stereo not drawn) | U251 CNS | 97.2 |
| CSc1nn2c(-c3cc4cc(Br)ccc4oc3=O)ccnc2c1C#N | U251 CNS | 102 |
| CC(=O)[C@H]1CC[C@]2(C)[C@@H]1CC[C@@H]1[C@@]3(C)C/C(=C/c4cccnc4)C(=O)C(C)(C)[C@@H]3CC[C@]12C | U251 CNS | 60.7 |
| C#CCOc1ccc(C2=NN(CCCC)C3N=C(Cl)c4ncn(CCCC)c4N23)cc1OCC#C (stereo not drawn) | U251 CNS | 79.6 |
| O=C(c1ccccc1)[C@@H](c1ccccc1)[C@]1(O)C(=O)Nc2ccccc21 | U251 CNS | 101 |
| CC1(C)CC[C@]2(CO)CC[C@]3(C)C(=CC[C@@H]4[C@@]5(C)CCNCC(C)(C)[C@@H]5CC[C@]43C)[C@@H]2C1 | U251 CNS | 56.6 |
| CCCCCCCCCCCCCC[n+]1ccc2c(C)c3c(c(C)c2c1)c1cc(O)ccc1n3CC | U251 CNS | -89 |
